# test: soluble on expression in E. coli; label from the status in PepcDB or PDB records

[
  {
    "construct-sequence": "SNAMIYPDETMLYAPVEWHDCSEGYTDIRYEKSTDGIAKITINRPQVRNAFRPLTVKEMIQALADARYDDNVGVIILTGEGDKAFCAGGDQKVRGDYGGYQDDSGVHHLNVLDFQRQIRTCPKPVVAMVAGYSIGGGHVLHMMCDLTIAAENAIFGQTGPKVGSFDGGWGASYMARIVGQKKAREIWFLCRQYDAQQALDMGLVNTVVPLADLEKETVRWCREMLQNSPMALRCLKAALNADCDGQAGLQELAGNATMLFYMTEEGQEGRNAFNQKRQPDFSKFKRNP",
    "soluble on expression in E. coli": "soluble"
  },
  {
    "construct-sequence": "MHHHHHHMELSLASITVPLESIKPSNILPVTVYDQHGFRILFHFARDPLPGRSDVLVVVVSMLSTAPQPIRNIVFQSAVPKVMKVKLQPPSGTELPAFNPIVHPSAITQVLLLANPQKEKVRLRYKLTFTMGDQTYNEMGDVDQFPPPETWGSL",
    "soluble on expression in E. coli": "soluble"
  },
  {
    "construct-sequence": "MNHLKEVYIDIRDEIFDALDAASLVDVEPLELESQLKDSVNILIEKKQLQISSLKRLDLVKALLDELKGLGPLQALVDNDDISDIMINGPSDIFIEINGKVEKSPIQFVNEKQLNTIAKRIASNVGRRIDESKPLCDARLEDGSR",
    "soluble on expression in E. coli": "not soluble"
  },
  {
    "construct-sequence": "AGLENTDHTNNEHRLTQLLSIAEECETLDRLKQLVDSGRIFTAYNGFEPSGRIHIAQALITVMNTNNMIECGGQMIIYIADWFAKMNLKMNGDINKIRELGRYFIEVFKACGINLDGTRFIWASEFIASNPSYIERMLDIAEFSTISRVKRCCQIMGRNESDCLKASQIFYPCMQAADVFELVPEGIDICQLGIDQRKVNMLAIEYANDRGLKIPISLSHHMLMSLSGPKKKMSKSDPQGAIFMDDTEQEVSEKISRAYCTDETFDNPIFEYIKYLLLRWFGTLNLCGKIYTDIESIQEDFSSMNKRELKTDVANYINTIIDLVREHFKKPELSELLSNVKSYQQPSK",
    "soluble on expression in E. coli": "soluble"
  },
  {
    "construct-sequence": "MKEIELKLKGEINRLTNKTFKFDERVGEGWFSAVYFLKTREIIEEFRPKSVVTMQFFQKENAVLCGTDEVIALLQTFAKNPEELEINSLKDGDKISPFETVLTIDGPYENFGFLEGVIDGILARRTSVATNVYNVVQAARSVDKEKPVIFMGDRDDHYTQQAGDGYAAYIGGMSAQATHAMNEWWGKSGMGTMPHALIQMFNGDVVEAAKAYHKKFPEDELVVLIDYNNDVITDALRVAREFGSTLKGVRVDTSRTMIDQYFIRHPEVLGTFDPRGVNPSLVFALRKALDEEGFQHVDIVVTGGFDEKRIREFEAQNVPVDIYGVGSSLLKMNIGFTGDNVELNGKPEAKAGRKYRPNPRLERVQLEKREDM",
    "soluble on expression in E. coli": "not soluble"
  },
  {
    "construct-sequence": "MNGKPDLVITDSQVFKQVNAKLDRSVPLTSFSILMARYKGDLDKFYSGAKAIKNLKAGDKVLIAEACTHHQLKGDIAREKLPTWLEETCPGIIVHNCSGKDFPKNLNEYALVIHCGGCMFNKAEIMNRIGICDDALVPITNFGTSIAEINNILDRVMEPLKLEHHHHHH",
    "soluble on expression in E. coli": "not soluble"
  },
  {
    "construct-sequence": "MLVVPAIDLFRGKVARMIKGRKENTIFYEKDPVELVEKLIEEGFTLIHVVDLSNAIENSGENLPVLEKLSEFAEHIQIGGGIRSLDYAEKLRKLGYRRQIVSSKVLEDPSFLKSLREIDVEPVFSLDTRGGRVAFKGWLAEEEIDPVSLLKRLKEYGLEEIVHTEIEKDGTLQEHDFSLTKKIAIEAEVKVLAAGGISSENSLKTAQKVHTETNGLLKGVIVGRAFLEGILTVEVMKRYAR",
    "soluble on expression in E. coli": "soluble"
  },
  {
    "construct-sequence": "MKLRSVTYALFIAGLAAFSTSSLAAQSLRFGYETSQTDSQHIAAKKFNDLLQERTKGELKLKLFPDSTLGNAQAMISGVRGGTIDMEMSGSNNFAGLSPVMNLLDVPFLFRDTAHAHKTLDGKVGDDLKASLEGKGLKVLAYWENGWRDVTNSRAPVKTPADLKGLKIRTNNSPMNIAAFKVFGANPIPMPFAEVYTGLETRTIDAQEHPINVVWSAKFFEVQKFLSLTHHAYSPLLVVINKAKFDGLSPEFQQALVSSAQEAGNYQRKLVAEDQQKIIDGMKEAGVEVITDLDRKAFSDALGNQVRDMFVKDVPQGADLLKAVDEVQ",
    "soluble on expression in E. coli": "not soluble"
  },
  {
    "construct-sequence": "MSLETFTGIRYETAVERVANGGFTDLPRQIEWRKALAAFQSAPIFGHGWNSFAQQTFLINAEQHNIHDNLLSNLFTHSHNIVLQLLAEMEGHHHHHH",
    "soluble on expression in E. coli": "not soluble"
  },
  {
    "construct-sequence": "PVTSISHEQLQQVHAEAGLTIALSTSVGDDLFYVDHVSSEPEYAYLAENRLRRSLLRTSAGWLLLADREQRDIWAYLNSRPVADADYIEQFLYALEALRATGVCAAPGVAVEHGDGVSVALRERGRTIATLGVVGVRETIIERRDELAKICLRHAEEWGFR",
    "soluble on expression in E. coli": "soluble"
  },
  {
    "construct-sequence": "ISVDTLNTKELIEAINLGADMILSVDAGNLDELIPYLKDSETAVVVLPTNYKTNYVPETIEGKIKSLEENIKKLIDAGIEKIVADPILEPINNAGCSFIESVIACREFKKRNKLPLFFGVGNVTELFDADSNGVNALLAAIGAEIGANILFTPEASAKCKFSIKELKIASKMMFLAKKRNSLPKDIGYNLINYKDKRFEEEITFNSYNIPIIKAEEDERQILDEGSFKIEIDRKNKEIVAIYFNKRREPVLIIRGKKPKEIYETAIRLNLIKKLDHASYFGRELAKAEIALRIGKKYNQDFDLF",
    "soluble on expression in E. coli": "not soluble"
  },
  {
    "construct-sequence": "MSLAQPCAIIDLETTGGNIARDRITEVGMVLIDGERVERLSWLVNPGQPIPPFIENMTGISNEMVAGAPPFSAQADELLDRLQGRLLLAHNARFDYGFLKNEFRRHGLRFQARALCTVKLSRRLYPQHFKHSLDSLIARHGIDMPERHRALADAEAVYRFIRIAEAELGEDRVAHEAAQLLSQPAELSSLPAELQQQIEEGHHHHHH",
    "soluble on expression in E. coli": "not soluble"
  }
]
